Values were extracted from patent US20140323573A1.

test.description: Osmotic coefficient and osmolality of solutions
Assay type: physicochemical
stated.conditions: 0.1 molar solution
Counter-ions that a name gives are not always drawn.
test.readout: Osmot. coefficient
The reply should be a number, written without any unit.

Query string: Could you please provide reported Osmot. coefficient for N=C(N)NCCC[C@H](N)C(=O)O ? Thanks!
Result string: 0.980

Query string: Please give measured Osmot. coefficient of the following entry: N=C(N)NCCC[C@H](N)C(=O)O.O=C(O)O
Result string: 0.833

Query string: Let me know recorded Osmot. coefficient for O=C(O)CC(O)(CC(=O)O)C(=O)O [citric acid] , thanks.
Result string: 0.555

Query string: Look up Osmot. coefficient of O=C(O)CC(O)(CC(=O)O)C(=O)O [Na3 citrate] and report it.
Result string: 0.681

Query string: Read the entry O=C(O)CC(O)(CC(=O)O)C(=O)O [Lys3 citrate, tri-lysine citrate] and write its reported Osmot. coefficient.
Result string: 0.715

Query string: Given O=C(O)CC(O)(CC(=O)O)C(=O)O [K3 citrate] , respond with its Osmot. coefficient.
Result string: 0.681

Query string: Quick one: give measured Osmot. coefficient for NCCCC[C@H](N)C(=O)O
Result string: 1.000

Query string: Specify Osmot. coefficient for Cl.N=C(N)NCCC[C@H](N)C(=O)O [Arg HCl, arginine hydrochloride] and stop.
Result string: 0.895

====

test.description: Osmotic coefficient and osmolality of solutions
Assay type: physicochemical
Where a name gives a salt, the structure may show the parent alone.
test.readout: Osmot. valence
No unit in the answer, please; the number alone is enough.

Query string: Entry Cl.N=C(N)NCCC[C@H](N)C(=O)O [Arg HCl, arginine hydrochloride] needs its Osmot. valence filled in; supply it.
Result string: 2

Query string: Fill in Osmot. valence for record O=C(O)CC(O)(CC(=O)O)C(=O)O [K3 citrate]
Result string: 4

Query string: Find the measured Osmot. valence of O=C(O)CC(O)(CC(=O)O)C(=O)O [citric acid] and report it.
Result string: 3

Query string: Could you please provide reported Osmot. valence for O=C(O)CC(O)(CC(=O)O)C(=O)O [Na3 citrate] ? Thanks!
Result string: 4

Query string: For the molecule N=C(N)NCCC[C@H](N)C(=O)O.O=C(O)O , report Osmot. valence.
Result string: 2

Query string: Give Osmot. valence for N=C(N)NCCC[C@H](N)C(=O)O
Result string: 1

Query string: Fill in reported Osmot. valence for this entry: O=C([O-])O.[Na+]
Result string: 2

Query string: Look up and report measured Osmot. valence for this entry: NCCCC[C@H](N)C(=O)O
Result string: 1

Query string: Please give measured Osmot. valence of the following entry: [Cl-].[Na+]
Result string: 2

====

test.description: Buffer properties / acid-base data of 0.1 molar salt solutions (37° C.)
stated.conditions: 0.1 molar solution
Counter-ions that a name gives are not always drawn.
Assign pH to each entry below.
The answer should be a number; do not append a unit.

Query string: Please report the measured pH for N=C(N)NCCC[C@H](N)C(=O)O
Result string: 10.26

Query string: Give the measured pH for NCCCC[C@H](N)C(=O)O
Result string: 9.55

Query string: Output pH of CC(=O)O.NCCCC[C@H](N)C(=O)O [Lysine Acetate, lysine acetate]
Result string: 5.99

Query string: Tell me pH reported for CC(=O)O.N=C(N)NCCC[C@H](N)C(=O)O [Arg acetate, arginine acetate]
Result string: 5.99

Query string: Give reported pH value for O=C(O)CC(O)(CC(=O)O)C(=O)O [Lys3 citrate, tri-lysine citrate]
Result string: 6.88
